# study system: T1, human tissue factor pathway inhibitor (TFPI) (human, UniProt P10646 29-304, limits assumed)
# T1 construct: bought; also called hTFPI; human TFPI
# T1 sequence (looked up): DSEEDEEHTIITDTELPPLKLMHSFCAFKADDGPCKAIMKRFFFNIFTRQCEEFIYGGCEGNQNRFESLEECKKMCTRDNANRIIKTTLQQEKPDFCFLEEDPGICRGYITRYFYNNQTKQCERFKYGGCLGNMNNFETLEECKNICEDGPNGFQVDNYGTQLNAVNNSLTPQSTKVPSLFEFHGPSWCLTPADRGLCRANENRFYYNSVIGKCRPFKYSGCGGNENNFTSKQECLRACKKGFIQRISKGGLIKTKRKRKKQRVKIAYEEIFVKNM
# protocol summary: competitive ELISA
readout kind: variant/wild-type (ratio)
Form entry: value (ratio) — number only.

2A8 LC_D92S (Fab, V domains shown) VH: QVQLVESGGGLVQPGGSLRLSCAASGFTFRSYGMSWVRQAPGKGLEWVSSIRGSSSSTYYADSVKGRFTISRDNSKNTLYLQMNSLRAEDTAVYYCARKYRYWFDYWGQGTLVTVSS VL: DIELTQPPSVSVAPGQTARISCSGDNLRNYYAHWYQQKPGQAPVVVIYYDNNRPSGIPERFSGSNSGNTATLTISGTQAEDEADYYCQSWDSGVPVFGGGTKLTVLG | 3.8
2A8 HC_S31V (Fab, V domains shown, also called 2A8-3) VH: QVQLVESGGGLVQPGGSLRLSCAASGFTFRVYGMSWVRQAPGKGLEWVSSIRGSSSSTYYADSVKGRFTISRDNSKNTLYLQMNSLRAEDTAVYYCARKYRYWFDYWGQGTLVTVSS VL: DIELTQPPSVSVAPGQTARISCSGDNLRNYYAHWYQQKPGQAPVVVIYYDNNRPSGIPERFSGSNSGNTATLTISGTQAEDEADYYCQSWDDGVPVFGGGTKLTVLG | 9.7
2A8 LC_D91K (Fab, V domains shown, also called 2A8-15) VH: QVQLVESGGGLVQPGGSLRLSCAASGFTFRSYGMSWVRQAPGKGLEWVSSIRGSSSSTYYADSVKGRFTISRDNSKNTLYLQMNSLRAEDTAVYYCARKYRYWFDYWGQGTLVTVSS VL: DIELTQPPSVSVAPGQTARISCSGDNLRNYYAHWYQQKPGQAPVVVIYYDNNRPSGIPERFSGSNSGNTATLTISGTQAEDEADYYCQSWKDGVPVFGGGTKLTVLG | 3.5
2A8 HC_F104Y (Fab, V domains shown) VH: QVQLVESGGGLVQPGGSLRLSCAASGFTFRSYGMSWVRQAPGKGLEWVSSIRGSSSSTYYADSVKGRFTISRDNSKNTLYLQMNSLRAEDTAVYYCARKYRYWYDYWGQGTLVTVSS VL: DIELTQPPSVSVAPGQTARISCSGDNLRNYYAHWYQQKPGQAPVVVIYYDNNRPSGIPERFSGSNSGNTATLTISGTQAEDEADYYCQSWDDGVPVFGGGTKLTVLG | 2
2A8 LC_D91W (Fab, V domains shown, also called 2A8-17) VH: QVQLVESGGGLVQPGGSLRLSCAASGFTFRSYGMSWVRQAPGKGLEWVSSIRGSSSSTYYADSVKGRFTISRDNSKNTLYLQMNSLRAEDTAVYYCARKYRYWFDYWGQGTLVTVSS VL: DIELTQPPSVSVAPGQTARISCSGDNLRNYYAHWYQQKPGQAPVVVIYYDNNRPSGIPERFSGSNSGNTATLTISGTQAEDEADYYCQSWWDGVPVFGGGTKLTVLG | 7.4

Query: Which value of variant/wild-type has been reported for 2A8 HC_G33K (Fab, V domains shown) VH: QVQLVESGGGLVQPGGSLRLSCAASGFTFRSYKMSWVRQAPGKGLEWVSSIRGSSSSTYYADSVKGRFTISRDNSKNTLYLQMNSLRAEDTAVYYCARKYRYWFDYWGQGTLVTVSS VL: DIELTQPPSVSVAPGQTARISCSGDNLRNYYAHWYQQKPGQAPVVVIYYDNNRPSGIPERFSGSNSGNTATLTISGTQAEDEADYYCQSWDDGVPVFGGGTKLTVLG in the records?
Result: 1.8

Query: Which value of variant/wild-type has been reported for 2A8 LC_V96W (Fab, V domains shown) VH: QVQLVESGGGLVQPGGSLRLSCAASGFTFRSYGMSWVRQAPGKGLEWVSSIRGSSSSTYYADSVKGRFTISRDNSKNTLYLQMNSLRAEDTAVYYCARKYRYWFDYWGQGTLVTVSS VL: DIELTQPPSVSVAPGQTARISCSGDNLRNYYAHWYQQKPGQAPVVVIYYDNNRPSGIPERFSGSNSGNTATLTISGTQAEDEADYYCQSWDDGVPWFGGGTKLTVLG in the records?
Result: 4

Query: Which value of variant/wild-type has been reported for 2A8 LC_D91L (Fab, V domains shown, also called 2A8-16) VH: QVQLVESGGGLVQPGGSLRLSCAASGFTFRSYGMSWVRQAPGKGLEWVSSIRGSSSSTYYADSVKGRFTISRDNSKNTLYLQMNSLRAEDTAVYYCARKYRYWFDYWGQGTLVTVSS VL: DIELTQPPSVSVAPGQTARISCSGDNLRNYYAHWYQQKPGQAPVVVIYYDNNRPSGIPERFSGSNSGNTATLTISGTQAEDEADYYCQSWLDGVPVFGGGTKLTVLG in the records?
Result: 4.2

Query: Which value of variant/wild-type has been reported for 2A8 HC_S31P (Fab, V domains shown, also called 2A8-2) VH: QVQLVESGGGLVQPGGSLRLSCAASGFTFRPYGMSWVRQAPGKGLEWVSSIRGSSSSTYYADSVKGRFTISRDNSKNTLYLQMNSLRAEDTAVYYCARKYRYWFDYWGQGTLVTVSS VL: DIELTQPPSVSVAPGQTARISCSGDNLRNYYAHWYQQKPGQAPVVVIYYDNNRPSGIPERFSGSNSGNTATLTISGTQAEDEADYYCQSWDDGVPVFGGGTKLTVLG in the records?
Result: 3.6

Query: Which value of variant/wild-type has been reported for 2A8 HC_S55R (Fab, V domains shown, also called 2A8-8) VH: QVQLVESGGGLVQPGGSLRLSCAASGFTFRSYGMSWVRQAPGKGLEWVSSIRGSRSSTYYADSVKGRFTISRDNSKNTLYLQMNSLRAEDTAVYYCARKYRYWFDYWGQGTLVTVSS VL: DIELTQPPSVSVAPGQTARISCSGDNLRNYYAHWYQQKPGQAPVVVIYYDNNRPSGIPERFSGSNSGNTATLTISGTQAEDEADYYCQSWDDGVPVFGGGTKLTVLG in the records?
Result: 4.4
